Target: recombinant soluble homotrimeric HA of A/Netherlands/219/03 (H7N7) (Influenza A virus A/Netherlands/219/03(H7N7))
Experiment: HA microarray, BCC supernatant
Conditions: remark: other sources report otherwise
metricName: Trimeric HA Binding: RLU (RLU)
Numbers only, in RLU.

TCN-521 (3280_D18) (antibody, V domains shown) VH: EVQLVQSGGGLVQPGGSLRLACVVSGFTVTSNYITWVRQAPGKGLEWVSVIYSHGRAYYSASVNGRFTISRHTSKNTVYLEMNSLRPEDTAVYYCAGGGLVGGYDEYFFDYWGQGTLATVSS VL: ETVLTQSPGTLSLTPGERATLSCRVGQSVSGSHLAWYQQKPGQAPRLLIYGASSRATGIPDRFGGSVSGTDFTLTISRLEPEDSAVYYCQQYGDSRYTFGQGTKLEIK
2500

Continue with the next binder.
What Trimeric HA Binding: RLU value was documented for this binder, TCN-563 (5237_B21) (antibody, V domains shown) VH: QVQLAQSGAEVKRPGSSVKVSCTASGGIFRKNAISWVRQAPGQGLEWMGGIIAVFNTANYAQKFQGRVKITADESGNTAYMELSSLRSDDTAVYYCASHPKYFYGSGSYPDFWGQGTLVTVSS VL: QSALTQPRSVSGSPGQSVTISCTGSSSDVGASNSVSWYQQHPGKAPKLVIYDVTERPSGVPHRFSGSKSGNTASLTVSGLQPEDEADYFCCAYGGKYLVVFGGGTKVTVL ?
7520
